- experimentDescription: physchem
- measurementConditions: water
endpointLabel: solubility

Notebook: CCC1(c2cnc[nH]2)Cc2ccccc2C1 [Atipamezole] , solubility read as ~70 µg/mL
